Biological target: T1, human GM-CSF (granulocyte macrophage-colony stimulating factor) (human, UniProt P04141 18-144)
T1 construct: Soluble cytokine used in ELISA, SPR, TF-1 bioassay and immune complex formation; also called recombinant GM-CSF
T1 sequence (P04141 18-144 limits assumed): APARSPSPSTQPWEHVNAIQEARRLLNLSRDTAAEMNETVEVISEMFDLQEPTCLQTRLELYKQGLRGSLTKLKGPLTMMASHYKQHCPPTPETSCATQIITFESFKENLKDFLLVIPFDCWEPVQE
Assay: SPR (ProteOn), mAb captured on protein A, GM-CSF as analyte, Langmuir fit
Procedure: The kinetics of binding was determined by surface plasmon resonance (SPR). […] HEPES buffered saline (HBS) (10 mM HEPES, pH 7.4, 150 mM NaCl, 3 mM EDTA, 0.005% surfactant Tween-20) was used as running buffer. All injections were made at flow rate of 100 µl/min. […] Each binding interaction of mAbs with GM-CSF was assessed using a ProteON XPR36 instrument (Biorad) and data processed with ProteOn Manager Software. Ka, Kd and KD were calculated applying the Langmuir fit model.
Entries and their koff values follow.
Write it as a number; the unit s⁻¹ goes unstated.

Before answering, review these 2 worked examples.
GCA21 (antibody, IgG1, V domains shown, also called GCA21 antibody) VH: QVQLMESGGGVVQPGRSLRLSCSAFGFTFSNYPMHWVRQAPGKGLEWVAIILPDGNRKNYGRSVTGRFTISRDNSNNSLYLQMNNLTTEDTAMYYCTRDGTYYSNGGVYQTYRRFFDFWGRGTLVTVSS VL: DIQMTQSPSTLSTSVGDRVTITCRASQNILNWLAWYQQKPGNAPNLLIYKASDLQSGVPSRFSGSGSGTEFTLTISSLQPDDFATYYCQHYNSYPLTFGGGTKVEIKR; 0.00065
Namilumab (antibody, V domains shown) VH: QVQLVQSGAEVKKPGASVKVSCKAFGYPFTDYLLHWVRQAPGQGLEWVGWLNPYSGDTNYAQKFQGRVTMTRDTSISTAYMELSRLRSDDTAVYYCTRTTLISVYFDYWGQGTMVTVSS VL: DIQMTQSPSSVSASVGDRVTIACRASQNIRNILNWYQQRPGKAPQLLIYAASNLQSGVPSRFSGSGSGTDFTLTINSLQPEDFATYYCQQSYSMPRTFGGGTKLEIK; 7.7e-05

Value of koff reported for the binder GCE536 (antibody, human IgG1, kappa, V domains shown, also called GCE536 antibody) VH: QLQLVQSGTEVKKPGASVKVSCKSSGYVFTSYYLVWVRQAPGQGLEWMATISPGDVNTSYEQRFQGRVTVTTDASTNTVDMELRSLRSEDTAVYYCARGPRSKPPYLYFALDVWGQGTAVTVSS VL: EIVLTQSPGTLSLSPGETAILSCRASQSVSSSLLAWYQQKPGQAPRLLIYGASNRATGIRGRFSGSGSGTDFTLTISRLEPEDFVLYYCQHYGSRVTFGQGTKLEIKR is 0.00011

For this binder ( GCB59 (antibody, IgG1, V domains shown, also called GCB59 antibody) VH: EVQLVESGGDLVKAGGSLRLSCAVSGLSFSSSGMNWVRQAPGKGLEWISSISGSQNYKYYADSVKGRFVVSRDNARNFLYLQMDSLRAEDTAVYFCVGGFPYWLPPSDFSGFHVWGQGTTVTVSS VL: SYVLTQPPSVSVAPGQTASLTCGGTNIGSKSVHWYQQKAGQAPVLVVYADNDRPSGVPERFSGSNSGNTATLTISRVEAEDESDYFCQVWDGNTDHVVFGGGTKLTVLG ), measured koff is 0.0012
